src = ChEMBL document CHEMBL1132453

Target: Retinoic acid receptor alpha (Homo sapiens)
Sequence (P10276 whole entry): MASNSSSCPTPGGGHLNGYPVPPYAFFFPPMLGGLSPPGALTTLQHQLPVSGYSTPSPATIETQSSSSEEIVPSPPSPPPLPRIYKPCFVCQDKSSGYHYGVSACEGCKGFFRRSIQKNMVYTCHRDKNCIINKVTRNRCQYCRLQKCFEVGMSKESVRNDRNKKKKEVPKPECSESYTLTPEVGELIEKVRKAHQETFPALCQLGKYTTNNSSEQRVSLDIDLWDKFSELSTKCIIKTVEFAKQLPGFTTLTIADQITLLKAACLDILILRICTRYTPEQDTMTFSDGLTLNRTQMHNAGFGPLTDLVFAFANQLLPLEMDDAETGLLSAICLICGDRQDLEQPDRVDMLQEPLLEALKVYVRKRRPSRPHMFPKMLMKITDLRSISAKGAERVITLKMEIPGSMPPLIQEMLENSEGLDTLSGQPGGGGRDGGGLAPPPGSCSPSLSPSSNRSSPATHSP
Test: Transcriptional activation in CV-1 cells expressing human Retinoic acid receptor RAR alpha
measuredQuantity: pEC50
Lab note: report pEC50 as minus log10 of the concentration in molar units, number only.

Bench note: what pEC50 did "COC(=O)c1ccc(C(=O)Nc2ccc3c(c2)C(C)(C)CC(C)(C)S3)cc1" show?
6.65

###

Target: Retinoic acid receptor gamma (Homo sapiens)
Sequence (P13631 whole entry): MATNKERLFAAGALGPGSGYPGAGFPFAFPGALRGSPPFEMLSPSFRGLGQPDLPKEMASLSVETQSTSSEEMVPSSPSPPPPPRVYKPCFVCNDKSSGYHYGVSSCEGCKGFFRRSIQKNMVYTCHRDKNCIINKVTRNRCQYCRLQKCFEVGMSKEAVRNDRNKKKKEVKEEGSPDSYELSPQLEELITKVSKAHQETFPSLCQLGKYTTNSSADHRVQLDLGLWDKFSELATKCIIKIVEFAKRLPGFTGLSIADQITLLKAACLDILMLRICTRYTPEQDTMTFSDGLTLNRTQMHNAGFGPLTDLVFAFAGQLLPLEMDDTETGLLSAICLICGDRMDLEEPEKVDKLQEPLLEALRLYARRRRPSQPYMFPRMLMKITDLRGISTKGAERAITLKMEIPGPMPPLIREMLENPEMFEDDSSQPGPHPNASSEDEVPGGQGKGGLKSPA
Test: Transcriptional activation in CV-1 cells expressing human Retinoic acid receptor RAR gamma
measuredQuantity: pEC50
// pEC50 is dimensionless: -log10 of concentration (M)

Tell me the measured pEC50 of "COC(=O)c1ccc(C(=O)Nc2ccc3c(c2)C(C)(C)CC(C)(C)S3)cc1" , please.
6.82

###

Molecular target: Retinoic acid receptor RXR-gamma (Mus musculus, UniProt P28705)
Sequence (P28705 whole entry): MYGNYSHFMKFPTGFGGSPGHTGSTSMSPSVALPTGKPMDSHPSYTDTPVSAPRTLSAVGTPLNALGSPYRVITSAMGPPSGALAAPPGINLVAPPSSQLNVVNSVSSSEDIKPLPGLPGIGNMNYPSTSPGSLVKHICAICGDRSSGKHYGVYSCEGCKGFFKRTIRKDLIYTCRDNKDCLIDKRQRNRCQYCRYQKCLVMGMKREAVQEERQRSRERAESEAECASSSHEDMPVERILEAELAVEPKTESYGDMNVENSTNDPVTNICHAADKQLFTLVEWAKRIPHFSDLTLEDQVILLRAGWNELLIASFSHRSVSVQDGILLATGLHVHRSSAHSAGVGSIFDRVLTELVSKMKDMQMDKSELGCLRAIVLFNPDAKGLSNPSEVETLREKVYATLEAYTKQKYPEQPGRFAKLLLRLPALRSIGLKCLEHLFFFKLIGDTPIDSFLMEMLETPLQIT
Assay: Transcriptional activation of CV-1 cells expressing murine Retinoid X receptor RXR gamma
measuredQuantity: EC50 (nM)
A number alone suffices; assume nM.

{"columns": ["smilesRecord", "measurement"],
 "data": [
  ["CC1(C)CCOc2ccc(C(=O)Oc3ccc(/C=N/N=C(/N)S)cc3)cc21", 1900]
]}

Entry under review: "COC(=O)c1ccc(C(=O)Nc2ccc3c(c2)C(C)(C)CC(C)(C)S3)cc1" . Reported EC50?
302
